# Tested on: KB-3-1
# Method description: Cytotoxic Profiling of Annotated Libraries Using Quantitative High-Throughput Screening (AID 1296008); also: nearly all actives have a fitted effect of over 60% in size; also: potency is read from the fitted curve at half-maximal effect
# Test parameters: Five cell lines viability, CellTiter-Glo ATP luminescence, 48-72 h
Results filed as inconclusive are left out. Calls of active or inactive are those of the source. Calls follow the shape of the dose curve; as a rule, active = well fitted inhibition curve with a large enough effect; inconclusive = small, poorly fitted or top-dose-only effect; inactive = flat fitted curve, though single readings scatter.
Property name: Potency

Example results:
C[C@@H]1O[C@@H](O[C@H]2[C@@H](OC(=O)[C@]34CCC(C)(C)CC3C3=CCC5[C@@]6(C)C[C@H](O)[C@H](O[C@@H]7O[C@H](C(=O)O)[C@@H](O)[C@H](O)[C@H]7O)[C@@](C)(C(=O)O)C6CC[C@@]5(C)[C@]3(C)CC4)OC[C@H](O)[C@@H]2O)[C@H](O)[C@H](O)[C@H]1O[C@@H]1OC[C@@H](O)[C@H](O)[C@H]1O (stereo not given in full) | inactive
C=C1C(=O)OC2CC(C)=C(C(C)CCCO)C(O)C12 (stereo not given) | inactive
CC[C@]12C=CCN3CC[C@@]4(c5cc([C@@]6(C(=O)OC)C[C@H]7C[C@@H](C(C)(F)F)CN(Cc8c6[nH]c6ccccc86)C7)c(OC)cc5N(C)[C@H]4[C@@](O)(C(=O)OC)[C@@H]1OC(C)=O)[C@@H]32 | 137 nM (active)
C/C(=C\CCC(C)CCO)C(=O)O[C@@H]1[C@@H](O)[C@H](OC2OC=C(C(=O)O)C3CCC(C)(O)C23)O[C@H](CO)[C@H]1O (stereo not given in full) | inactive

Now for a further molecule.
GET Potency where system = KB-3-1 and item = CN(C)C/C=C/C(=O)Nc1cc2c(Nc3ccc(F)c(Cl)c3)ncnc2cc1OC1CCOC1 (stereo not given)
5170 nM (active)
